Sourced from ChEMBL document CHEMBL5375992

# testedTarget: Protein cereblon/Zinc finger protein Helios (Homo sapiens) (UniProt Q96SW2+Q9UKS7)
# Sequence (Q96SW2 whole entry, looked up): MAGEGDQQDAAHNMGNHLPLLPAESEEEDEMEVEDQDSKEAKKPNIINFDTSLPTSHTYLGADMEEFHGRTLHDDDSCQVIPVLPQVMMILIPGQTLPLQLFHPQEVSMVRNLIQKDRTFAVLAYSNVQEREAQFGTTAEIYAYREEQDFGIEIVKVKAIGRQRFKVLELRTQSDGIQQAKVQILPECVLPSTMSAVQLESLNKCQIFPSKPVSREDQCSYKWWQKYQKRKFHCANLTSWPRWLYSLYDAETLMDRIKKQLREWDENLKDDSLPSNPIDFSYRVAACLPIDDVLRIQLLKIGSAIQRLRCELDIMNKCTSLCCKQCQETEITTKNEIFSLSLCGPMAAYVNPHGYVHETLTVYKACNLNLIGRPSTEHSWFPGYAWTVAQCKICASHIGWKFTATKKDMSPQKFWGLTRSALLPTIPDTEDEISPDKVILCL
# Sequence (Q9UKS7 whole entry, looked up): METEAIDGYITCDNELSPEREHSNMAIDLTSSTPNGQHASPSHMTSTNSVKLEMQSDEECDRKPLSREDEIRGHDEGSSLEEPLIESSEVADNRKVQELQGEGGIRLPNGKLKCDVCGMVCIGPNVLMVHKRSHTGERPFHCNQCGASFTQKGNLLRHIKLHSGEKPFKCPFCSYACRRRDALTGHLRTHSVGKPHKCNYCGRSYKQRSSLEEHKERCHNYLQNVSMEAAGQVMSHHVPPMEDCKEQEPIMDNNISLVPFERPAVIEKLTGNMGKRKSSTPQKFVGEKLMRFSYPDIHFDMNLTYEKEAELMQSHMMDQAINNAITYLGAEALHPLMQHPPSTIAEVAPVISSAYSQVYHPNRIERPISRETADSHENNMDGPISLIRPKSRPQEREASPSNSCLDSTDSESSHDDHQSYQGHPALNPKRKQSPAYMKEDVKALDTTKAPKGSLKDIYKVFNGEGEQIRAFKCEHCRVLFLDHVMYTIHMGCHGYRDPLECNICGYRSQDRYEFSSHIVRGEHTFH
# protocol: Protac activity at CRBN/IKZF2 (unknown origin) transfected in HEK293T cells at 100 nM incubated for 24 hrs by flow cytometry analysis relative to control
# Type: cell-based
assayEndpoint: Activity (%)

// solved cases for Activity follow
compound: COc1ccc2cc(C(=O)Nc3ccc4c(c3)CN(C3CCC(=O)NC3=O)C4=O)ncc2c1 (centres undefined)
Activity / %: 68
//
compound: COc1ccc2cc(C(=O)Nc3ccc4c(c3)CN(C3CCC(=O)NC3=O)C4=O)ccc2n1 (centres undefined)
Activity / %: 89
//
compound: O=C1CCC(N2Cc3cc(NC(=O)C4=COc5ccccc5O4)ccc3C2=O)C(=O)N1 (centres undefined)
Activity / %: 81
//
compound: CCOc1ccc2cc(C(=O)Nc3ccc4c(c3)CN(C3CCC(=O)NC3=O)C4=O)ccc2c1 (centres undefined)
Activity / %: 80
//
compound: O=C1CCC(N2Cc3cc(NC(=O)c4ccc(Oc5ccccc5)cc4)ccc3C2=O)C(=O)N1 (centres undefined)
Activity / %: 78
//
compound: O=C1CCC(N2Cc3cc(NC(=O)c4cc5ccccc5o4)ccc3C2=O)C(=O)N1 (centres undefined)
Activity / %: 80
//
compound: O=C1CCC(N2Cc3cc(NC(=O)C4=Cc5ccc(Br)cc5OC4)ccc3C2=O)C(=O)N1 (centres undefined)
Activity / %: 80
//
compound: O=C1CCC(N2Cc3cc(NC(=O)C4=Cc5ccc(OC(F)(F)F)cc5OC4)ccc3C2=O)C(=O)N1 (centres undefined)
Activity / %: 85
//
compound: COc1cccc2c1C=C(C(=O)Nc1ccc3c(c1)CN(C1CCC(=O)NC1=O)C3=O)CO2 (centres undefined)
Activity / %: 75
//
compound: O=C(/C=C/c1ccccc1)Nc1ccc2c(c1)CN(C1CCC(=O)NC1=O)C2=O (centres undefined)
Activity / %: 71

[1] O=C1CCC(N2Cc3cc(NC(=O)c4ccc5c(c4)CCCC5)ccc3C2=O)C(=O)N1 (centres undefined)
[2] CC(=O)Nc1ccc2c(c1)CN(C1CCC(=O)NC1=O)C2=O (centres undefined)
Which value of Activity is greater, the one for 1 or the one for 2 ? Respond using the label that marks the chosen record.
1
(1: 74%, 2: 17%)

----------
# testedTarget: Cereblon/Ikaros (Homo sapiens) (UniProt Q96SW2+Q13422)
# protocol: Protac activity at CRBN/IKZF1 (unknown origin) transfected in HEK293T cells at 100 nM incubated for 24 hrs by flow cytometry analysis relative to control
# Assay type: cell-based
assayEndpoint: Activity (%)

// solved cases for Activity follow
compound: O=C1CCC(N2Cc3cc(NC(=O)c4ccc5c(c4)OCCO5)ccc3C2=O)C(=O)N1 (stereo unspecified)
assayEndpoint: Activity
endpointValue: 9

compound: COc1cccc2c1OCC(C(=O)Nc1ccc3c(c1)CN(C1CCC(=O)NC1=O)C3=O)=C2 (stereo unspecified)
assayEndpoint: Activity
endpointValue: 11

compound: O=C1CCC(N2Cc3cc(NC(=O)C4=Cc5ccccc5OC4)ccc3C2=O)C(=O)N1 (stereo unspecified)
assayEndpoint: Activity
endpointValue: 15

[1] O=C1CCC(N2Cc3cc(NC(=O)C4=COc5ccccc5O4)ccc3C2=O)C(=O)N1 (stereo unspecified)
[2] O=C1CCC(N2Cc3cc(NC(=O)c4ccc(Oc5ccccc5)cc4)ccc3C2=O)C(=O)N1 (stereo unspecified)
Which value of Activity is greater, the one for 1 or the one for 2 ? Respond using the label that marks the chosen record.
1
